Tested on: NCI-H1734
PROCEDURE_TEXT: relative viability (nuclei count vs DMSO), 5 days (fraction); higher = more cells survive
CONDITION_SET: first compound 0.006325 µM
READOUT_KIND: relative viability
Could you keep your reply to the number by itself?

>>> recorded_result("CC(=O)O[C@@]12CO[C@@H]1C[C@H](O)[C@@]1(C)C(=O)[C@H](O)C3=C(C)[C@@H](OC(=O)[C@H](O)[C@@H](NC(=O)OC(C)(C)C)c4ccccc4)C[C@@](O)([C@@H](OC(=O)c4ccccc4)[C@H]21)C3(C)C [Docetaxel] + Cc1cc(Nc2cc(N3CCN(C)CC3)nc(Sc3ccc(NC(=O)C4CC4)cc3)n2)n[nH]1 [Tozasertib] (partner 0.1 µM)")
0.341
>>> recorded_result("CC(=O)O[C@@]12CO[C@@H]1C[C@H](O)[C@@]1(C)C(=O)[C@H](O)C3=C(C)[C@@H](OC(=O)[C@H](O)[C@@H](NC(=O)OC(C)(C)C)c4ccccc4)C[C@@](O)([C@@H](OC(=O)c4ccccc4)[C@H]21)C3(C)C [Docetaxel] + CC(C)C[C@H](NC(=O)[C@H](Cc1ccccc1)NC(=O)c1cnccn1)B(O)O [Bortezomib] (partner 0.002 µM)")
0.325
>>> recorded_result("CC(=O)O[C@@]12CO[C@@H]1C[C@H](O)[C@@]1(C)C(=O)[C@H](O)C3=C(C)[C@@H](OC(=O)[C@H](O)[C@@H](NC(=O)OC(C)(C)C)c4ccccc4)C[C@@](O)([C@@H](OC(=O)c4ccccc4)[C@H]21)C3(C)C [Docetaxel] + C[C@]1(O)C[C@@H](c2nc(-c3ccc4ccc(-c5ccccc5)nc4c3)c3c(N)nccn32)C1 [Linsitinib] (partner 1 µM)")
0.373
>>> recorded_result("CC(=O)O[C@@]12CO[C@@H]1C[C@H](O)[C@@]1(C)C(=O)[C@H](O)C3=C(C)[C@@H](OC(=O)[C@H](O)[C@@H](NC(=O)OC(C)(C)C)c4ccccc4)C[C@@](O)([C@@H](OC(=O)c4ccccc4)[C@H]21)C3(C)C [Docetaxel] + O=C(c1cc(Cc2n[nH]c(=O)c3ccccc23)ccc1F)N1CCN(C(=O)C2CC2)CC1 [Olaparib] (partner 8 µM)")
0.324

Proceed to the following item.
# relative viability (molecule: CC(=O)O[C@@]12CO[C@@H]1C[C@H](O)[C@@]1(C)C(=O)[C@H](O)C3=C(C)[C@@H](OC(=O)[C@H](O)[C@@H](NC(=O)OC(C)(C)C)c4ccccc4)C[C@@](O)([C@@H](OC(=O)c4ccccc4)[C@H]21)C3(C)C [Docetaxel] + NC(=O)Nc1cc(-c2cccc(F)c2)sc1C(=O)N[C@H]1CCCNC1 [AZD7762] (partner 0.2 µM) ) is 0.222

---

Quick reference: relative viability of the listed items.
Test system: NCI-H1993
PROCEDURE_TEXT: relative viability (nuclei count vs DMSO), 5 days (fraction); higher = more cells survive
CONDITION_SET: first compound 0.000632 µM

Reference set, count: 3
>>> recorded_result("CC(=O)O[C@@]12CO[C@@H]1C[C@H](O)[C@@]1(C)C(=O)[C@H](O)C3=C(C)[C@@H](OC(=O)[C@H](O)[C@@H](NC(=O)OC(C)(C)C)c4ccccc4)C[C@@](O)([C@@H](OC(=O)c4ccccc4)[C@H]21)C3(C)C [Docetaxel] + CCNC(=O)c1noc(-c2cc(C(C)C)c(O)cc2O)c1-c1ccc(CN2CCOCC2)cc1 [Luminespib] (partner 0.01 µM)")
0.783
>>> recorded_result("CC(=O)O[C@@]12CO[C@@H]1C[C@H](O)[C@@]1(C)C(=O)[C@H](O)C3=C(C)[C@@H](OC(=O)[C@H](O)[C@@H](NC(=O)OC(C)(C)C)c4ccccc4)C[C@@](O)([C@@H](OC(=O)c4ccccc4)[C@H]21)C3(C)C [Docetaxel] + C[C@]1(O)C[C@@H](c2nc(-c3ccc4ccc(-c5ccccc5)nc4c3)c3c(N)nccn32)C1 [Linsitinib] (partner 1 µM)")
0.739
>>> recorded_result("CC(=O)O[C@@]12CO[C@@H]1C[C@H](O)[C@@]1(C)C(=O)[C@H](O)C3=C(C)[C@@H](OC(=O)[C@H](O)[C@@H](NC(=O)OC(C)(C)C)c4ccccc4)C[C@@](O)([C@@H](OC(=O)c4ccccc4)[C@H]21)C3(C)C [Docetaxel] + Nc1ncn([C@H]2C[C@H](O)[C@@H](CO)O2)c(=O)n1 [Decitabine] (partner 2 µM)")
0.683

Continue with the next compound.
Bench note, NCI-H1993: CC(=O)O[C@@]12CO[C@@H]1C[C@H](O)[C@@]1(C)C(=O)[C@H](O)C3=C(C)[C@@H](OC(=O)[C@H](O)[C@@H](NC(=O)OC(C)(C)C)c4ccccc4)C[C@@](O)([C@@H](OC(=O)c4ccccc4)[C@H]21)C3(C)C [Docetaxel] + Nc1nc2[nH]cc(CCc3ccc(C(=O)N[C@@H](CCC(=O)O)C(=O)O)cc3)c2c(=O)[nH]1 [Pemetrexed] (partner 0.2 µM) , relative viability reads 0.762

---

Listed below: relative viability values for each entry.
System: EPLC-272H
PROCEDURE_TEXT: relative viability (nuclei count vs DMSO), 5 days (fraction); higher = more cells survive
CONDITION_SET: first compound 50 µM
Number, no unit, nothing else.

These solved cases illustrate the format of a correct answer.
>>> recorded_result("O=C(O)CCCCC(CCSCc1ccccc1)SCc1ccccc1 (configuration not stated) [CPI-613] + O=C(c1cc(Cc2n[nH]c(=O)c3ccccc23)ccc1F)N1CCN(C(=O)C2CC2)CC1 [Olaparib] (partner 8 µM)")
0.653
>>> recorded_result("O=C(O)CCCCC(CCSCc1ccccc1)SCc1ccccc1 (configuration not stated) [CPI-613] + COc1cc2c(Oc3ccc(NC(=O)C4(C(=O)Nc5ccc(F)cc5)CC4)cc3F)ccnc2cc1OCCCN1CCOCC1 [Foretinib] (partner 0.25 µM)")
0.69
>>> recorded_result("O=C(O)CCCCC(CCSCc1ccccc1)SCc1ccccc1 (configuration not stated) [CPI-613] + C[C@@H](Oc1cc(-c2cnn(C3CCNCC3)c2)cnc1N)c1c(Cl)ccc(F)c1Cl [Crizotinib] (partner 1 µM)")
1.03
>>> recorded_result("O=C(O)CCCCC(CCSCc1ccccc1)SCc1ccccc1 (configuration not stated) [CPI-613] + C[C@]1(O)C[C@@H](c2nc(-c3ccc4ccc(-c5ccccc5)nc4c3)c3c(N)nccn32)C1 [Linsitinib] (partner 1 µM)")
1.05
>>> recorded_result("O=C(O)CCCCC(CCSCc1ccccc1)SCc1ccccc1 (configuration not stated) [CPI-613] + CCNC(=O)c1noc(-c2cc(C(C)C)c(O)cc2O)c1-c1ccc(CN2CCOCC2)cc1 [Luminespib] (partner 0.01 µM)")
0.575

Assay EPLC-272H, sample O=C(O)CCCCC(CCSCc1ccccc1)SCc1ccccc1 (configuration not stated) [CPI-613] + CC(=O)c1c(C)c2cnc(Nc3ccc(N4CCNCC4)cn3)nc2n(C2CCCC2)c1=O [Palbociclib] (partner 0.5 µM) , relative viability read: 0.306

Tested on EPLC-272H, the item O=C(O)CCCCC(CCSCc1ccccc1)SCc1ccccc1 (configuration not stated) [CPI-613] + O=C(CCCCCCC(=O)Nc1ccccc1)NO [Vorinostat] (partner 1 µM) showed relative viability equal to 0.268

---

Tested on: HCC-827
PROCEDURE_TEXT: relative viability (nuclei count vs DMSO), 5 days (fraction); higher = more cells survive
CONDITION_SET: first compound 15.81 µM
READOUT_KIND: relative viability
Enter a number only.

>>> recorded_result("O=C(O)CCCCC(CCSCc1ccccc1)SCc1ccccc1 (stereo not given) [CPI-613] + CC(=O)Nc1cccc(-n2c(=O)n(C3CC3)c(=O)c3c(Nc4ccc(I)cc4F)n(C)c(=O)c(C)c32)c1 [Trametinib] (partner 0.02 µM)")
0.555
>>> recorded_result("O=C(O)CCCCC(CCSCc1ccccc1)SCc1ccccc1 (stereo not given) [CPI-613] + CS(=O)(=O)N1CCN(Cc2cc3nc(-c4cccc5[nH]ncc45)nc(N4CCOCC4)c3s2)CC1 [Pictilisib] (partner 1 µM)")
0.964
>>> recorded_result("O=C(O)CCCCC(CCSCc1ccccc1)SCc1ccccc1 (stereo not given) [CPI-613] + Nc1nc2[nH]cc(CCc3ccc(C(=O)N[C@@H](CCC(=O)O)C(=O)O)cc3)c2c(=O)[nH]1 [Pemetrexed] (partner 0.2 µM)")
0.268
>>> recorded_result("O=C(O)CCCCC(CCSCc1ccccc1)SCc1ccccc1 (stereo not given) [CPI-613] + C[C@@H](Oc1cc(-c2cnn(C3CCNCC3)c2)cnc1N)c1c(Cl)ccc(F)c1Cl [Crizotinib] (partner 1 µM)")
0.906

Continue with the compound presented below.
Item: O=C(O)CCCCC(CCSCc1ccccc1)SCc1ccccc1 (stereo not given) [CPI-613] + CC(=O)c1c(C)c2cnc(Nc3ccc(N4CCNCC4)cn3)nc2n(C2CCCC2)c1=O [Palbociclib] (partner 0.5 µM) | relative viability: 0.491
